target: EGFR wt (Homo sapiens (Human), UniProt P00533); assay: Biochemical EGFR inhibition assay (TR-FRET, poly-GT substrate), EGFR wt; conditions: read-out: wt (5 μM ATP) IC50; 5 μM ATP
Sequence (P00533 25-1210): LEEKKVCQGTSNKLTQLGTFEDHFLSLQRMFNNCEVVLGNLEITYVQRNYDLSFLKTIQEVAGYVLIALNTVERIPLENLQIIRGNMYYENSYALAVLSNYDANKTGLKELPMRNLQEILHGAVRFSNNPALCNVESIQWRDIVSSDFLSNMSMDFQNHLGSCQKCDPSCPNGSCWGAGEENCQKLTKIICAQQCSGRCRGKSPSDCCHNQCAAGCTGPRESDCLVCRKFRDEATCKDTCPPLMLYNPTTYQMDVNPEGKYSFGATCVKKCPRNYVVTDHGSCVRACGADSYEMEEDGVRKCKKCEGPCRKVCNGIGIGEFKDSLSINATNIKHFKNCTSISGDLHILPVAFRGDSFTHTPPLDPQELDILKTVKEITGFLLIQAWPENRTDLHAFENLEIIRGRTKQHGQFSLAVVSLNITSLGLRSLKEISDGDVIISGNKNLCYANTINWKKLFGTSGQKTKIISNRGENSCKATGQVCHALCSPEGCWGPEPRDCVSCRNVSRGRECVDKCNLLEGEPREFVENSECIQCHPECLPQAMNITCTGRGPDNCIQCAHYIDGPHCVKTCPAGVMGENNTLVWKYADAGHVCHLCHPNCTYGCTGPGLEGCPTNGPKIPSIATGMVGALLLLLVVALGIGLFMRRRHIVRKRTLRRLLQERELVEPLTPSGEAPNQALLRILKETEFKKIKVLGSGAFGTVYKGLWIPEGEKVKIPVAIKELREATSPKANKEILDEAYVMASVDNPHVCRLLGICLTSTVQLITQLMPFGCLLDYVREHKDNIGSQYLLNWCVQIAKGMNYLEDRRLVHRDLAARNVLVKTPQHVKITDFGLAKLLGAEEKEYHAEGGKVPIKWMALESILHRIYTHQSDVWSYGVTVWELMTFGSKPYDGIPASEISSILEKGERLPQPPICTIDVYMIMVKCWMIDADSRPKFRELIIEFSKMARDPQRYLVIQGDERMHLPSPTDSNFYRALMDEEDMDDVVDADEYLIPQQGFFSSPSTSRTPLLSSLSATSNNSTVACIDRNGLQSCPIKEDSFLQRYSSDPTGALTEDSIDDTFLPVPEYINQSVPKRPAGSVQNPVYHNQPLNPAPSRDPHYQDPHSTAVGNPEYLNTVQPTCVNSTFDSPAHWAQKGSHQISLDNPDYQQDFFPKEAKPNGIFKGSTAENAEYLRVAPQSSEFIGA
pIC50: −log10 of the molar value.
test-readout: pIC50

COc1ccccc1-c1cc(C(=O)/N=c2\[nH]c3ccccc3n2[C@H]2CC[C@H](O)[C@H](O)C2)ccn1 :: 6.83
Cc1cc(C(=O)/N=c2\[nH]c3ccc(CN4CCN(C)CC4)cc3n2CC(C)(C)O)cc(-c2cnn(C)c2)n1 :: 5.02
Cc1cc(C(=O)/N=c2\[nH]c3ccc(CN4CCN(C)CC4)cc3n2[C@H]2CC[C@@H](O)CC2)cc(-c2cnn(C)c2)n1 :: 6.50
Cn1cc(-c2cc(C(=O)/N=c3\[nH]c4ccccc4n3C3CCCS(=O)(=O)C3)ccn2)cn1 (stereo not shown) :: 6.50

I = Cn1cc(-c2cc(C(=O)/N=c3\[nH]c4ccccc4n3[C@H]3CCC[C@H](O)C3)ccn2)cn1 [I-137]
II = Cc1cc(C(=O)/N=c2\[nH]c3ccccc3n2[C@H]2CCC[C@H](O)C2)cc(-c2cnn(C)c2)n1
Enquiry: Could you point out whether the larger pIC50 belongs to I or to II ? Kindly give the label for the entry you pick.
Return: I

---

Target: EGFR wt (Homo sapiens (Human))
Assay: Biochemical EGFR inhibition assay (TR-FRET, poly-GT substrate), EGFR wt
Details: read-out: wt (100 μM ATP) IC50; 100 μM ATP
Procedure: Biochemical EGFR Inhibition Assays Initially, the inhibitory effect of compounds according to the invention is measured in biochemical assays which measure the phosphorylation activity of EGFR enzyme forms on poly-GT substrate in the presence of different concentrations of ATP (5 μM and 100 μM final assay concentration). […] These biochemical EGFR enzyme form compound dose-response assays quantify the kinase activity via phosphorylation of a tagged poly-GT substrate. […]
test-readout: IC50 (µM)

Cn1cc(-c2cc(C(=O)/N=c3\[nH]c4cc(C5CCCOC5)ccc4n3CC(C)(C)O)ccn2)cn1 (stereo not drawn) :: 5.74

A = CN1CCC(c2ccc3c(c2)[nH]/c(=N\C(=O)c2ccnc(-c4cnn(C)c4)c2)n3CC(C)(C)O)CC1=O (stereo not drawn)
B = CN(C)Cc1ccc2c(c1)[nH]/c(=N\C(=O)c1ccnc(-c3cnn(C)c3)c1)n2CC(C)(C)O
Enquiry: Could you point out whether the larger IC50 belongs to A or to B ? Kindly give the label for the entry you pick.
Return: B

---

system: Ba/F3 cells driven by EGFR mutants; experiment: Ba/F3 proliferation assay (CellTiter-Glo viability), EGFR mutant alleles; assay type: cell-based, murine; settings: Mus musculus, BaF3, Ba/F3 EGFR L858R, read-out: IC50 EGFR L858R
test-readout: IC50 (nM)

a = Cn1cc(-c2cc(C(=O)/N=c3\[nH]c4ccccc4n3[C@H]3CC[C@@H](O)CC3)ccn2)cn1
b = Cn1cc(-c2cc(C(=O)/N=c3\[nH]c4ccccc4n3C3CCCCC3)ccn2)cn1
Enquiry: Lower value of IC50 belongs to which: a or b ? Kindly give the label for the entry you pick.
Return: a
(a: 39.2 nM, b: 274 nM)

P = COc1ccccc1-c1cc(C(=O)/N=c2\[nH]c3cc(C)ccc3n2[C@H]2CC[C@@H](O)CC2)ccn1
Q = Cn1cc(-c2cc(C(=O)/N=c3\[nH]c4ccccc4n3[C@H]3CCC[C@H](O)C3)ccn2)cn1
Enquiry: Lower value of IC50 belongs to which: P or Q ? Kindly give the label for the entry you pick.
Return: P
